// reported pIC50 for each item listed
- TESTED SYSTEM: beta-catenin/TCF4 engagement (Homo sapiens)
- Construct: expressed in transfected cells; host or cells: HEK293
- Sequence (P35222 1-781): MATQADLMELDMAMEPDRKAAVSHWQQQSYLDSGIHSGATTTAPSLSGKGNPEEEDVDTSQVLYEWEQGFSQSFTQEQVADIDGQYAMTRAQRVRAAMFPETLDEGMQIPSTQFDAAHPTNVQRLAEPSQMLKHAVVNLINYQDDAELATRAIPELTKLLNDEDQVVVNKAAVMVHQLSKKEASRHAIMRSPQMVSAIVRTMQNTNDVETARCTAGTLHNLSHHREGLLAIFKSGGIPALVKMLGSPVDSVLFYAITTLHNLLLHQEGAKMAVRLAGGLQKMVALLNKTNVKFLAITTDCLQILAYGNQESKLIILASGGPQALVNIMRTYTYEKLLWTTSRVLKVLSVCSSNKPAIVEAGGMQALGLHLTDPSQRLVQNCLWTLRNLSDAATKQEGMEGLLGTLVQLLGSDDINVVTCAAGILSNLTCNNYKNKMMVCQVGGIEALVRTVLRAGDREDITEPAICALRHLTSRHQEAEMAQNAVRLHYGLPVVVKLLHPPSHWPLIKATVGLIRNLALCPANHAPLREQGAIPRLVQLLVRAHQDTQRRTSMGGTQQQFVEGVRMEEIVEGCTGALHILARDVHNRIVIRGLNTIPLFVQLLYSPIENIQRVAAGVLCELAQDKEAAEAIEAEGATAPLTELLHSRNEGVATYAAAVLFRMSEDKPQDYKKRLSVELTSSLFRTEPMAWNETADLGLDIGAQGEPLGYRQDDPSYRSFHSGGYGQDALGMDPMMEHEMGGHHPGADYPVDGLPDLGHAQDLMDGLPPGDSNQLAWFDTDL
- ASSAY DETAILS: Nano-BRET target engagement assay (B-cat-Halo & TCF4-Luc in HEK293 cells)
- Type: cell-based
- CONDITION DETAILS: absolute IC50; read-out: NanoBRET Abs IC50
When answering, recall that pIC50 equals minus log10 of the concentration in mol/L, and write that number alone.

CC(=O)N1CCC[C@]12CC=CCCCC1(CCCC=CCCCOC(=O)N3CC[C@@](C(=O)N[C@@H](Cc4ccsc4)C(=O)N[C@@H](Cc4csc5ccccc45)C(=O)N[C@H](C(N)=O)[C@@H](C)O)(C3)NC(=O)[C@H](CC(C)C)NC(=O)[C@H](Cc3ccccc3)NC(=O)[C@H](C)NC(=O)[C@H](C)NC(=O)[C@H](CC(=O)O)NC(=O)[C@H](CC(=O)O)NC1=O)NC(=O)[C@H](CC(C)(C)C)NC(=O)[C@H](CC(=O)O)NC2=O (some centres unmarked): 4.83

q: State its pIC50 for this compound: CC(=O)N1CCC[C@]12CC=CCCCC1(CCCC=CCCCOC(=O)N3CC[C@@](C(=O)N[C@@H](Cc4ccccc4Cl)C(=O)N[C@@H](Cc4csc5ccccc45)C(=O)N[C@@H](CCC(N)=O)C(N)=O)(C3)NC(=O)[C@H](CC(C)C)NC(=O)[C@H](Cc3ccccc3)NC(=O)[C@H](C)NC(=O)C(C)(C)NC(=O)[C@H](Cc3cccc(C(=O)O)c3)NC(=O)[C@H](CC(=O)O)NC1=O)NC(=O)[C@H](CC(C)(C)C)NC(=O)[C@H](CC(=O)O)NC2=O (some centres unmarked)
a: 5.27

Recorded values, source patent US20240116985A1.
